- measurement target: Neuropeptide Y receptor type 2 (Homo sapiens) (UniProt P49146)
- Sequence (P49146 whole entry, looked up): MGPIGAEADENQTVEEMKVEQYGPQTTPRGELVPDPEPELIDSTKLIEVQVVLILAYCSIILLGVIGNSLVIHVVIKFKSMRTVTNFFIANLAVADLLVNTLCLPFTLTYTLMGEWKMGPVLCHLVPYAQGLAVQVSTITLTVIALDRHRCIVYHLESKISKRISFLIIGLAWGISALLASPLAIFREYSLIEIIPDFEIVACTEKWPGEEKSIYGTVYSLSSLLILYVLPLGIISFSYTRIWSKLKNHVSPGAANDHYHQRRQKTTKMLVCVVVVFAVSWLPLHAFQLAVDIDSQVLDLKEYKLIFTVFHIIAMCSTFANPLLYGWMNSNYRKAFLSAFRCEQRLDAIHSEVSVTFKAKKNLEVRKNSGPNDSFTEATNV
- assay procedure: NPY-Y2 receptor antagonists, retest of hits, confirmation, HEK293-CNG cells, membrane potential fluorescence, triplicate (AID 1257)
- assay setup: HEK293 NPY-Y2 CNG channel, at 2.8 µM
The other results are listed elsewhere or left out. Active and inactive are the calls of the source.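 Rule for the calls: active = mean inhibition of triplicate wells above the hit cutoff set in the primary screen (cut at about 17% in these data); inactive = the rest.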
Outcome codes: active, inactive

smiles text | discrete label
COc1ccc(/C(N)=N/OC(=O)CCCc2ccccc2)cc1 | inactive
CCCCC(O)(CCCC)C(=O)NN(C(=O)CCl)c1ccccc1 | inactive
COc1cccc(-c2ccc(C#N)c(SCC(=O)NCCc3ccc(Cl)cc3)n2)c1 | active
COc1ccc(-c2noc(COc3ccc(Cl)c(C)c3)n2)cc1 | active
O=C(CC(O)(C(F)(F)F)C(F)(F)F)Nc1ccc(Cl)c(Cl)c1 | inactive
COC(=O)c1ccc(CSc2nc3cc(Cl)ccc3o2)cc1 | inactive

====

- measurement target: Neuropeptide Y receptor type 2 (Homo sapiens) (UniProt P49146)
- assay procedure: NPY-Y2 receptor antagonists, retest of hits, confirmation, HEK293-CNG cells, membrane potential fluorescence, triplicate (AID 1257)
- assay setup: HEK293 NPY-Y2 CNG channel, at 2.8 µM
The list shows a part of the results. Calls of active or inactive are those of the source.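 Rule for the calls: active = mean inhibition of triplicate wells above the hit cutoff set in the primary screen (cut at about 17% in these data); inactive = the rest.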
Classes used: active, inactive

molecule | discrete label
O=C(Oc1ccccc1)Oc1ccc2c(c1)oc(=O)c1ccccc12 | inactive
CCOc1ccc(S(=O)(=O)N/N=C(\C)c2ccc(Cl)c(Cl)c2Cl)cc1 | inactive
Cc1ccccc1OC(=O)Cn1c(C(F)(F)F)nc2ccccc21 | inactive
COc1ccc(-c2nc3ccccc3n2CCC(C)C)cc1OC | inactive
Cc1ccc(NC(=O)CN2CCC3(O)CCCCC3C2c2ccc3c(c2)OCO3)c(C)c1 (stereo not drawn) | inactive
Cc1ccccc1N1CCN(CCCOc2ccc3c(C)cc(=O)oc3c2)CC1 | active
Cc1cc(C(=O)OCC(=O)N2c3ccccc3NC(=O)C2(C)C)c(C)n1-c1ccccc1 | inactive
COc1ccc(NC(=O)/C(Cl)=C(/Cl)S(=O)Cc2ccc(C)cc2)cn1 (stereo not drawn) | active
